# ASSAY OVERVIEW: Inhibition of NS5A in HCV genotype 2a infected in human Huh7.5/J6/JFH1/EMCVIRES/hRlucNeo cells assessed as inhibition of replicon levels incubated for 72 hrs by luciferase reporter gene assay
Flag rule - IC50 less than 0.3 nM flags Satisfied; the remaining entries get Not satisfied.

Consider the following illustrative entries.
- CHEMICAL SMILES: "COC(=O)N[C@H](C(=O)N1CCC[C@H]1c1ncc(-c2ccc3c(ccc4cc(-c5cnc([C@@H]6CCCN6C(=O)[C@@H](NC(=O)OC)C(C)C)[nH]5)sc43)c2)[nH]1)C(C)C"
  DISCRETE LABEL: "Satisfied"
- CHEMICAL SMILES: "COC(=O)N[C@H](C(=O)N1CCC[C@H]1c1nc(Cl)c(-c2ccc3c(c2)CCCc2cc(-c4[nH]c([C@@H]5CCCN5C(=O)[C@@H](NC(=O)OC)C(C)C)nc4Cl)sc2-3)[nH]1)C(C)C"
  DISCRETE LABEL: "Satisfied"
- CHEMICAL SMILES: "COC(=O)N[C@H](C(=O)N1CCC[C@H]1c1ncc(-c2ccc3c(c2)OCCCOc2cc(-c4cnc([C@@H]5CCCN5C(=O)[C@@H](NC(=O)OC)C(C)C)[nH]4)ccc2-3)[nH]1)C(C)C"
  DISCRETE LABEL: "Not satisfied"
- CHEMICAL SMILES: "COC(=O)N[C@H](C(=O)N1CCC[C@H]1c1nc(C2CC2)c(-c2ccc3c(c2)OCC(C)(C)COc2cc(-c4[nH]c([C@@H]5CCCN5C(=O)[C@@H](NC(=O)OC)C(C)C)nc4C4CC4)ccc2-3)[nH]1)C(C)C"
  DISCRETE LABEL: "Not satisfied"
- CHEMICAL SMILES: "COC(=O)N[C@H](C(=O)N1CCC[C@H]1c1ncc(-c2ccc3c(c2)CCCc2cc(-c4cnc([C@@H]5CCCN5C(=O)[C@@H](NC(=O)OC)C(C)C)[nH]4)sc2-3)[nH]1)C(C)C"
  DISCRETE LABEL: "Not satisfied"
- CHEMICAL SMILES: "COC(=O)N[C@H](C(=O)N1CCC[C@H]1c1ncc(-c2ccc(-c3ccc(-c4ccc(-c5cnc([C@@H]6CCCN6C(=O)[C@@H](NC(=O)OC)C(C)C)[nH]5)cc4)cc3)cc2)[nH]1)C(C)C"
  DISCRETE LABEL: "Not satisfied"
- CHEMICAL SMILES: "COC(=O)N[C@H](C(=O)N1CCC[C@H]1c1ncc(-c2ccc3c(c2)OCCCOc2cc(-c4[nH]c([C@@H]5CCCN5C(=O)[C@@H](NC(=O)OC)C(C)C)nc4Cl)ccc2-3)[nH]1)C(C)C"
  DISCRETE LABEL: "Satisfied"
- CHEMICAL SMILES: "COC(=O)N[C@H](C(=O)N1CCC[C@H]1c1ncc(-c2ccc3c(c2)OCCCCOc2cc(-c4cnc([C@@H]5CCCN5C(=O)[C@@H](NC(=O)OC)C(C)C)[nH]4)ccc2-3)[nH]1)C(C)C"
  DISCRETE LABEL: "Not satisfied"

Check if IC50 falls below 0.3 nM for `COC(=O)N[C@H](C(=O)N1CCC[C@H]1c1ncc(-c2ccc3c(c2)CCc2cc(-c4cnc([C@@H]5CCCN5C(=O)[C@@H](NC(=O)OC)C(C)C)[nH]4)ccc2-3)[nH]1)C(C)C` .
Satisfied

Check if IC50 falls below 0.3 nM for `COC(=O)N[C@H](C(=O)N1CCC[C@H]1c1ncc(-c2ccc3c(c2)OCc2cc(-c4cnc([C@@H]5CCCN5C(=O)[C@@H](NC(=O)OC)C(C)C)[nH]4)sc2-3)[nH]1)C(C)C` .
Satisfied
